- studyTarget: Receptor-type tyrosine-protein phosphatase zeta (Homo sapiens)
- Sequence (P23471 whole entry): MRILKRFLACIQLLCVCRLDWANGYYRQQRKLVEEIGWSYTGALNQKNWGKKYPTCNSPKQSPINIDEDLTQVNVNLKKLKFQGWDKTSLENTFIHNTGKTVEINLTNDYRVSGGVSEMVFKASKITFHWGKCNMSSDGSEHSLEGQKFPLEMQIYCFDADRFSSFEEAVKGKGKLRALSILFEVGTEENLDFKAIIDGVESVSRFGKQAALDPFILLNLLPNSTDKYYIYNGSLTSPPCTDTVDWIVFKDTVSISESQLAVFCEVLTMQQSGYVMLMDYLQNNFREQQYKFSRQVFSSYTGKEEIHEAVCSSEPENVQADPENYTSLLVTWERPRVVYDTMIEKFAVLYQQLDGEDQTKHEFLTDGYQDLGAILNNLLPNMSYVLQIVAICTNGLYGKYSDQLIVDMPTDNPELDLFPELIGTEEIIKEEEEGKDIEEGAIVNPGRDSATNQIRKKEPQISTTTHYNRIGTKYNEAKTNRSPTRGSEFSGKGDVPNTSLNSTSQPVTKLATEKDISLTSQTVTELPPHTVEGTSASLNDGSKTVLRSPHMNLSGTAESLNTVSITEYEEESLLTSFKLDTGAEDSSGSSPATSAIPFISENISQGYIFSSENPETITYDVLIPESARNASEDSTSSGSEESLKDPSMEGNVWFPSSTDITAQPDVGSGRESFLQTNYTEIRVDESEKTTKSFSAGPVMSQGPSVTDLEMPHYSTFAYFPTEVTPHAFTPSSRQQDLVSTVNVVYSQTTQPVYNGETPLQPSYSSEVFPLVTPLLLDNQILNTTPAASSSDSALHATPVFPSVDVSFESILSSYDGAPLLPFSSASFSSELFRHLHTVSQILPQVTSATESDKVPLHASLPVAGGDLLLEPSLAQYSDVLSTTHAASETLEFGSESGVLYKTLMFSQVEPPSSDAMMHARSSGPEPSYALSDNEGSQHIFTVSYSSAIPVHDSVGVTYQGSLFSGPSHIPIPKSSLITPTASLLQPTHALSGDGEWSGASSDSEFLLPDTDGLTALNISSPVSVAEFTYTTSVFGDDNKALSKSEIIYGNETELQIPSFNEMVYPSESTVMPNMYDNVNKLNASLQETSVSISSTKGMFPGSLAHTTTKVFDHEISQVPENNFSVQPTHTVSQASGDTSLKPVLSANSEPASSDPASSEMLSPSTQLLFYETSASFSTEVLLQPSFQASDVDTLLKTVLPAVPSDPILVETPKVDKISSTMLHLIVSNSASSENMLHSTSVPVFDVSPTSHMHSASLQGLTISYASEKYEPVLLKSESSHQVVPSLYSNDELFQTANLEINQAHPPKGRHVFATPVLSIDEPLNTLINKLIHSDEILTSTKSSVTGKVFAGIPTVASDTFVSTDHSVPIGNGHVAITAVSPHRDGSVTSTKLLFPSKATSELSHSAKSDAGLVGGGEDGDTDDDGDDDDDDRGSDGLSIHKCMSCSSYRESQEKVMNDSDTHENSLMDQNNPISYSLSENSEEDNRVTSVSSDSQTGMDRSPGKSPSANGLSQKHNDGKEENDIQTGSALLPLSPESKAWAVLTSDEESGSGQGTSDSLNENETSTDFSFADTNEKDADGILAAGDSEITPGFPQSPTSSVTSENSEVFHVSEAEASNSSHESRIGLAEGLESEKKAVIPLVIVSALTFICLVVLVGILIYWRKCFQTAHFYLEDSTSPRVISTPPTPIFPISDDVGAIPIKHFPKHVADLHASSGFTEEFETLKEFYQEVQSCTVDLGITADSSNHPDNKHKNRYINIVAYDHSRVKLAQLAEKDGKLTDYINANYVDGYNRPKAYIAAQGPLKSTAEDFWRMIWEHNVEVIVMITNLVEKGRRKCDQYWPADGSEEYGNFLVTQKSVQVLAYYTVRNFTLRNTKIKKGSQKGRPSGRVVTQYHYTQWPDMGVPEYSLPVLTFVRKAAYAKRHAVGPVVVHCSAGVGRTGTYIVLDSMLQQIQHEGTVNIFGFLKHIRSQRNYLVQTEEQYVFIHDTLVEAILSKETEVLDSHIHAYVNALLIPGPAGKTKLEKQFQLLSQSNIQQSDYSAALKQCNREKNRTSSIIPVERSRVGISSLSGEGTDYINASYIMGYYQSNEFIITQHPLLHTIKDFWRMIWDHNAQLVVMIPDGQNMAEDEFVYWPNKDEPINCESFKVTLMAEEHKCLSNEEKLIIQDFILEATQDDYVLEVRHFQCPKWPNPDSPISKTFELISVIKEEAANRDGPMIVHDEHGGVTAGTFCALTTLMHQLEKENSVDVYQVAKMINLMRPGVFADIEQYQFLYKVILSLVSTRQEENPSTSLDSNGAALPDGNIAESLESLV
- assayExplanation: Inhibition of PTPRZ1 in human HeLa cells assessed as increase in EGF-induced tryrosine phosphorylation at 0.1 to 10 uM incubated for 10 mins after EGF stimulation for 10 mins by ELISA relative to control
- Type: cell-based
Calls of active or inactive are those of the source.
experimentalEndpoint: inhibition

O=C(Nc1ccc(S(=O)(=O)C(F)(F)F)cc1)c1ccc(S(=O)(=O)C(F)(F)F)cc1	inactive
FC(F)(F)Sc1ccc(CNCc2ccccc2)cc1	inactive
O=C(Cc1ccc(S(=O)(=O)C(F)(F)F)cc1)Nc1ccc(S(=O)(=O)C(F)(F)F)cc1	≥ 10%
FC(F)(F)Sc1ccc(COc2ccc(SC(F)(F)F)cc2)cc1	≥ 10%
FC(F)(F)Sc1ccc(CNCc2ccc(SC(F)(F)F)cc2)cc1	≥ 10%
O=C(Cc1ccc(S(=O)(=O)C(F)(F)F)cc1)NCc1ccc(S(=O)(=O)C(F)(F)F)cc1	≥ 10%
FC(F)(F)Sc1ccc(CNc2ccc(SC(F)(F)F)cc2)cc1	≥ 10%
O=C(Cc1ccc(SC(F)(F)F)cc1)NCc1ccc(SC(F)(F)F)cc1	≥ 10%
O=S(=O)(c1ccc(COc2ccc(S(=O)(=O)C(F)(F)F)cc2)cc1)C(F)(F)F	inactive
O=C(Cc1ccc(SC(F)(F)F)cc1)Nc1ccc(SC(F)(F)F)cc1	≥ 10%

Q: Can you look up the measured inhibition of FC(F)(F)Sc1ccc(CN(Cc2ccc(SC(F)(F)F)cc2)Cc2ccc(SC(F)(F)F)cc2)cc1 for me?
A: ≥ 10%

Q: Check O=S(=O)(c1ccc(OCc2ccc(SC(F)(F)F)cc2)cc1)C(F)(F)F too.
A: inactive

Q: Check O=C(NCc1ccc(SC(F)(F)F)cc1)c1ccc(SC(F)(F)F)cc1 too.
A: ≥ 10%

Q: Check FC(F)(F)Sc1ccc(OCc2ccncc2)cc1 too.
A: < 10%

Q: Check FC(F)(F)Sc1ccc(NCc2ccccc2)cc1 too.
A: ≥ 10%

Q: Check O=C(Nc1ccc(SC(F)(F)F)cc1)c1ccc(SC(F)(F)F)cc1 too.
A: ≥ 10%

Q: Check FC(F)(F)Sc1ccc(NCc2ccc(Cl)cc2)cc1 too.
A: inactive

###

- studyTarget: Tyrosine-protein phosphatase non-receptor type 1 (Homo sapiens)
- Sequence (P18031 whole entry): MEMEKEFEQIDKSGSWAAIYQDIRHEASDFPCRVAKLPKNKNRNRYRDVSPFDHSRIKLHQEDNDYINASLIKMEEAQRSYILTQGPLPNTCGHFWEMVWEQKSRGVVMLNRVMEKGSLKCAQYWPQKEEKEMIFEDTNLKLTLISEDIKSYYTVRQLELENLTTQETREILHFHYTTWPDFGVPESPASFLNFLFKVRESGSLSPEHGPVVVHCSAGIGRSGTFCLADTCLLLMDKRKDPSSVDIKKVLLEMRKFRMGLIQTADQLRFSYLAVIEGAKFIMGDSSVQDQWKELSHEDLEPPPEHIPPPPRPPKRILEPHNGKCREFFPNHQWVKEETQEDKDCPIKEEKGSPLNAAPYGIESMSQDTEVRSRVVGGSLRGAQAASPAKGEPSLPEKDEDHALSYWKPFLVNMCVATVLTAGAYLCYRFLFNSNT
- assayExplanation: Inhibition of human recombinant PTP1B using pNPP as substrate by fluorescence spectrometric analysis
- appliedConditions: read-out: IC50
Recorded IC50 for the following molecules
Could you give me the number in nM? Just the number is fine.

FC(F)(F)Sc1ccc(NCc2ccccc2)cc1	1000

Now look at this entry.
Q: Can you look up the measured IC50 of FC(F)(F)Sc1ccc(CNCc2ccc(SC(F)(F)F)cc2)cc1 for me?
A: 700

###

- studyTarget: UniProtKB P23471
- assayExplanation: Inhibition of human recombinant PTPRZ1 using pNPP as substrate at 1 uM by fluorescence spectrometric analysis relative to control
The source made the active and inactive calls.
experimentalEndpoint: inhibition

In the examples that follow, each entry is paired with its recorded inhibition.
O=C(Nc1ccc(SC(F)(F)F)cc1)c1ccc(SC(F)(F)F)cc1	inactive
FC(F)(F)Sc1ccc(NCc2ccccc2)cc1	≥ 10%
O=C(NCc1ccc(SC(F)(F)F)cc1)c1ccc(SC(F)(F)F)cc1	≥ 10%
FC(F)(F)Sc1ccc(OCc2ccncc2)cc1	inactive
FC(F)(F)Sc1ccc(CN(Cc2ccc(SC(F)(F)F)cc2)Cc2ccc(SC(F)(F)F)cc2)cc1	< 10%
O=C(Cc1ccc(SC(F)(F)F)cc1)NCc1ccc(SC(F)(F)F)cc1	≥ 10%
FC(F)(F)Sc1ccc(COc2ccc(SC(F)(F)F)cc2)cc1	≥ 10%
O=C(Nc1ccc(S(=O)(=O)C(F)(F)F)cc1)c1ccc(S(=O)(=O)C(F)(F)F)cc1	inactive
FC(F)(F)Sc1ccc(CNCc2ccc(SC(F)(F)F)cc2)cc1	≥ 10%
O=C(Cc1ccc(S(=O)(=O)C(F)(F)F)cc1)NCc1ccc(S(=O)(=O)C(F)(F)F)cc1	inactive

Q: Can you look up the measured inhibition of O=S(=O)(c1ccc(OCc2ccc(SC(F)(F)F)cc2)cc1)C(F)(F)F for me?
A: inactive

Q: Check O=S(=O)(c1ccc(COc2ccc(S(=O)(=O)C(F)(F)F)cc2)cc1)C(F)(F)F too.
A: inactive

Q: Check FC(F)(F)Sc1ccc(CNc2ccc(SC(F)(F)F)cc2)cc1 too.
A: inactive

Q: Check O=C(Cc1ccc(S(=O)(=O)C(F)(F)F)cc1)Nc1ccc(S(=O)(=O)C(F)(F)F)cc1 too.
A: ≥ 10%

Q: Check O=C(Cc1ccc(SC(F)(F)F)cc1)Nc1ccc(SC(F)(F)F)cc1 too.
A: inactive

Measured values drawn from ChEMBL document CHEMBL4251614 for this set.
